- target under test: UniProt:P07333
- Sequence (P07333 20-972): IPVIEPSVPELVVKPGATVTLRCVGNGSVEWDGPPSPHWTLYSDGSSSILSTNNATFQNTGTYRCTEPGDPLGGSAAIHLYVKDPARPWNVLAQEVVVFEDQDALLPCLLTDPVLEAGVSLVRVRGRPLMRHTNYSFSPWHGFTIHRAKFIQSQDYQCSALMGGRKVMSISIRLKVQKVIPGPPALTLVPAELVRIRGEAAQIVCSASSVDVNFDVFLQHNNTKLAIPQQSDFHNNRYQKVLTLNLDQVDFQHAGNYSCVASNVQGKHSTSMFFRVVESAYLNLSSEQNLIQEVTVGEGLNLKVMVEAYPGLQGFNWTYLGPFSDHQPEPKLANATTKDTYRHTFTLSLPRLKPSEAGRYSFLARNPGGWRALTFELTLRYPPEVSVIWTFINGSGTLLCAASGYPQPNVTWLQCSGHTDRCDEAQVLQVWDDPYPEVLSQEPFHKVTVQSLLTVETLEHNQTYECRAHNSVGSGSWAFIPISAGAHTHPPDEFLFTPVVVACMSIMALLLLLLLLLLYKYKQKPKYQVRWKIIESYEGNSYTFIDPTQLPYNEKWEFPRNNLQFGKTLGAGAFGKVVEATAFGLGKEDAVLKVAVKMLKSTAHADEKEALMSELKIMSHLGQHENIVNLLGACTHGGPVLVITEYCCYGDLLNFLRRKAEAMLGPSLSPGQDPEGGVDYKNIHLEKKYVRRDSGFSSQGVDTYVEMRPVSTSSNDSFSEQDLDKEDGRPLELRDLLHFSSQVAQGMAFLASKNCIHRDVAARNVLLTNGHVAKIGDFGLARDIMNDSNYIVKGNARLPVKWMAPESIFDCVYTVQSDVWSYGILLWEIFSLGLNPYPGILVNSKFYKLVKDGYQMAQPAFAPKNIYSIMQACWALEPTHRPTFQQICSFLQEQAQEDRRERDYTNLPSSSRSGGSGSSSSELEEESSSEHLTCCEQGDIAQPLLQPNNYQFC
- protocol: HEK293 CSF1R phosphorylation MSD assay
- Type: cell-based
- Parameters: expressed in transfected cells; host or cells: HEK293
- measurement setup: 2 h compound, human M-CSF 50 ng/mL for 5 min; read-out: HEK293 pCSF1R M-CSF MSD:IC50
pIC50: −log10 of the molar value.
What pIC50 was measured for each of the following?

Which pIC50 is reported with UniProt:P07333 for this entry: COc1cc2ncn(Cc3ccc4nc(N[C@@H]5CCCCC5O)sc4c3)c2cc1OC (stereo in doubt) ?
≥ 7.30

Report pIC50 for CSc1cnc2c(c1)ncn2Cc1ccc2nc(N[C@@H]3CCCC[C@H]3O)sc2c1 tested on UniProt:P07333.
≥ 7.30

Please tell me: pIC50 of COc1ccc2c(c1)ncn2Cc1ccc2nc(N[C@@H]3CCCC[C@H]3O)sc2c1 , system UniProt:P07333?
≥ 7.30

Lab request: please report pIC50 under test system UniProt:P07333 for O[C@@H]1CCCC[C@H]1Nc1nc2ccc(Cn3cnc4ccccc43)cc2s1
6.70 to 7.30

Find pIC50 (UniProt:P07333) for the entry COc1cc2ncn(Cc3ccc4nc(N[C@@H]5CCCC[C@H]5O)sc4c3)c2cc1-c1cnn(C)c1
≥ 7.30

Test system UniProt:P07333; read-out pIC50; what value for Cn1cc(-c2cnc3c(c2)ncn3Cc2ccc3nc(N[C@@H]4CCCC[C@H]4O)sc3c2)cn1 ?
≥ 7.30

Reported pIC50 for UniProt:P07333, given O[C@@H]1CCCC[C@H]1Nc1nc2ccc(Cn3cnc4ncccc43)cc2s1 ?
< 6.30

Item O[C@@H]1Cc2ccccc2[C@H]1Nc1nc2ccc(Cn3cnc4cc(Br)cnc43)cc2s1 with UniProt:P07333 - pIC50?
6.70 to 7.30

# returns recorded pIC50 (system: UniProt:P07333) for O[C@@H]1CCCC[C@H]1Nc1nc2ccc(Cn3cnc4cccnc43)cc2o1
6.70 to 7.30

Missing value: pIC50, UniProt:P07333, entry COc1cc2ncn(Cc3ccc4nc(NCCN5CCOCC5)sc4c3)c2cc1OC . Fill in?
< 6.30

Short answer please: pIC50, UniProt:P07333, entry CSCc1cnc2c(c1)ncn2Cc1ccc2nc(N[C@@H]3CCCC[C@H]3O)sc2c1
≥ 7.30

Lab request: please report pIC50 under test system UniProt:P07333 for CS(=O)(=O)c1cnc2c(c1)ncn2Cc1ccc2nc(N[C@@H]3CCCC[C@H]3O)sc2c1
6.70 to 7.30

Quick check: pIC50 on UniProt:P07333, item O[C@@H]1CCCC[C@H]1Nc1nc2ccc(Cn3cnc4cc(Br)ccc43)cc2s1 ?
6.70 to 7.30

For UniProt:P07333, provide pIC50 of COC(c1ccc2nc(N[C@@H]3CCCC[C@H]3O)sc2c1)c1c[nH]c2ncccc12 (some centres unmarked) please.
6.30 to 6.70

Find pIC50 (UniProt:P07333) for the entry CC(=O)c1cnc2c(c1)ncn2Cc1ccc2nc(N[C@@H]3CCCC[C@H]3O)sc2c1
≥ 7.30

Test system UniProt:P07333; read-out pIC50; what value for O[C@@H]1CCCC[C@H]1Nc1nc2ccc(Cn3cnc4cc(-c5cccnc5)cnc43)cc2s1 ?
≥ 7.30

Requested read-out pIC50, target or system UniProt:P07333, entry COc1ccc2ncn(Cc3ccc4nc(N[C@@H]5CCCC[C@H]5O)sc4c3)c2c1
6.70 to 7.30
